FYI, the data here is from patent US20200317779A1.

target: recombinant human CD3ε/δ heterodimer (human) (UniProt P07766); assay: BLI (Octet), antigen on anti-Penta His sensor, antibody 50 nM
Sequence (P07766 23-126, stated change not applied, chain 1 of 2): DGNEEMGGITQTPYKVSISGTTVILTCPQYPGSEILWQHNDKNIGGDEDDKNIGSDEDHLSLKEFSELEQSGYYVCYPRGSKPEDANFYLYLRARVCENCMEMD
Sequence (P04234 22-105, stated change not applied, chain 2 of 2, further chain): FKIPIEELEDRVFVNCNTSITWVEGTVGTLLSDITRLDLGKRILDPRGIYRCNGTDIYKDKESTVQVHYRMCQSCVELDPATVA
koff values for the binders below.
Give your result in s⁻¹ as a bare value.

BINDER	QUANTITATIVE_READOUT
E15 (antibody, human IgG1, lambda, L234A L235A, V domains shown) VH: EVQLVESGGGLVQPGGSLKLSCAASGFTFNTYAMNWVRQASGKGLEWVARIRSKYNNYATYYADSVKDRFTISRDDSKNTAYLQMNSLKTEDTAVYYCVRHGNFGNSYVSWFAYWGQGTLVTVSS VL: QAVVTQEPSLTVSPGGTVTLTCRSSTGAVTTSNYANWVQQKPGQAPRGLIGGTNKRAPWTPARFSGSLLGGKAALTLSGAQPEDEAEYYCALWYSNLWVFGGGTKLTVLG	0.000392

Let us examine a further case.
# input Fill in the blank: the reported koff of F16 (antibody, human IgG1, lambda, L234A L235A, V domains shown) VH: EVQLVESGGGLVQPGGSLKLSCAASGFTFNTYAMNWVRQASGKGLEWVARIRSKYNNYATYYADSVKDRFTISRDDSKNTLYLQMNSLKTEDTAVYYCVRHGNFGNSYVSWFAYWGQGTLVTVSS VL: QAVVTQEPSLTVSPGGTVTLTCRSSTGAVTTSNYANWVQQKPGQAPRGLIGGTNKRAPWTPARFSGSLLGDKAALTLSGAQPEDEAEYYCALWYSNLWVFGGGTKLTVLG is ____.
# output 0.00012
